Run Description: Clinical test in humans, three 30-min i.v. infusions 8 hours apart, plasma PK
Format: in vivo
Test Settings: human, in vivo, iv, 200 ug/kg, three 30-min i.v. infusions 8 h apart, 200 μg/kg each, mean, read-out: AUC0-t3
Ends that are not written are not given here.
Readout Label: AUC (ng·h/mL)
Express the result in ng·h/mL but write the number alone.

**Q:** For the substance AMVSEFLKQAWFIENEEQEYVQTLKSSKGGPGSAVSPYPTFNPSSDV-NH2 [Peptide 1] , what AUC is on record?
**A:** 2720

###

Run Description: Clinical test in humans, three 30-min i.v. infusions 8 hours apart, plasma PK
Format: in vivo
Test Settings: human, in vivo, iv, 250 ug/kg, three 30-min i.v. infusions 8 h apart, 250 μg/kg each, GM, read-out: AUC0-24
Ends that are not written are not given here.
Readout Label: AUC(0-t) (ng·h/mL)
Express the result in ng·h/mL but write the number alone.

**Q:** For the substance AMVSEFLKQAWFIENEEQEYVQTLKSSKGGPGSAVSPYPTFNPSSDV-NH2 [Peptide 1] , what AUC(0-t) is on record?
**A:** 7490

###

Run Description: Clinical test in humans, single 30-min i.v. infusion, plasma PK
Format: in vivo
Test Settings: human, in vivo, iv, 100 ug/kg, single 30-min i.v. infusion 100 μg/kg, GM, read-out: t1/2 (converted)
Ends that are not written are not given here.
Readout Label: half-life (h)
Express the result in h but write the number alone.

**Q:** For the substance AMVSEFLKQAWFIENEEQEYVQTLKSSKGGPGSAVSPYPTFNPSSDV-NH2 [Peptide 1] , what half-life is on record?
**A:** 1.13

###

Run Description: Clinical test in humans, three 30-min i.v. infusions 8 hours apart, plasma PK
Type: in vivo
Test Settings: human, in vivo, iv, 140 ug/kg, three 30-min i.v. infusions 8 h apart, 140 μg/kg each, GM, read-out: AUC0-tau1
Ends that are not written are not given here.
Readout Label: AUC
Please append the unit to your numeric answer.

**Q:** For the substance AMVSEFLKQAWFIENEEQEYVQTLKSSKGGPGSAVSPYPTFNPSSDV-NH2 [Peptide 1] , what AUC is on record?
**A:** 1740 ng·h/mL

###

Run Description: Clinical test in humans, single 30-min i.v. infusion, plasma PK
Type: in vivo
Test Settings: human, in vivo, iv, single 30-min i.v. infusion 400 μg/kg, GM, read-out: AUC0-t
Ends that are not written are not given here.
Readout Label: AUC(0-t) (ng·h/mL)
Express the result in ng·h/mL but write the number alone.

**Q:** For the substance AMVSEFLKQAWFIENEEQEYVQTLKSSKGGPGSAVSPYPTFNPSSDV-NH2 [Peptide 1] , what AUC(0-t) is on record?
**A:** 4690

###

Run Description: 14-day repeat IV dose toxicity study with toxicokinetic evaluation on Day 1 and 14 in dogs
Assay type: in vivo, beagle dogs
Test Settings: dog, in vivo, iv, 10 mg/kg/day, IV 10 mg/kg/day, female, Day 1, read-out: T1/2
Ends that are not written are not given here.
Readout Label: half-life (min)
Express the result in min but write the number alone.

**Q:** For the substance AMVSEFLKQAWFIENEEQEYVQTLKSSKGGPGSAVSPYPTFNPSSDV-NH2 [Peptide 1] , what half-life is on record?
**A:** 5.41

###

Run Description: 14-day repeat IV dose toxicity study with toxicokinetic evaluation on Day 1 and 14 in dogs
Format: in vivo, beagle dogs
Test Settings: dog, in vivo, iv, 10 mg/kg/day, IV 10 mg/kg/day, male, Day 14
Ends that are not written are not given here.
Readout Label: C0
Please append the unit to your numeric answer.

**Q:** For the substance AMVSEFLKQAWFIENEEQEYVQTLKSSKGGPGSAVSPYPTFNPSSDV-NH2 [Peptide 1] , what C0 is on record?
**A:** 51.4 µg/mL

###

Run Description: 14-day repeat IV dose toxicity study with toxicokinetic evaluation on Day 1 and 14 in dogs
Format: in vivo, beagle dogs
Test Settings: dog, in vivo, all groups, read-out: elimination half-life
Ends that are not written are not given here.
Readout Label: half-life

**Q:** For the substance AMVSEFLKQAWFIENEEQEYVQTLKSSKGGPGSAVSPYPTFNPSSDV-NH2 [Peptide 1] , what half-life is on record?
**A:** 4.66 to 6.59 min

###

Run Description: Clinical test in humans, three 30-min i.v. infusions 8 hours apart, plasma PK
Assay type: in vivo
Test Settings: human, in vivo, iv, 200 ug/kg, three 30-min i.v. infusions 8 h apart, 200 μg/kg each, GM, read-out: AUC0-tau2
Ends that are not written are not given here.
Readout Label: AUC (ng·h/mL)
Express the result in ng·h/mL but write the number alone.

**Q:** For the substance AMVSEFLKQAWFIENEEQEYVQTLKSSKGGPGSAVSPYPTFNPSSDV-NH2 [Peptide 1] , what AUC is on record?
**A:** 2650

###

Run Description: 14-day repeat IV dose toxicity study with toxicokinetic evaluation on Day 1 and 14 in dogs
Assay type: in vivo, beagle dogs
Test Settings: dog, in vivo, iv, 10 mg/kg/day, IV 10 mg/kg/day, male, Day 1, read-out: Cl
Ends that are not written are not given here.
Readout Label: clearance (mL/min/kg)
Express the result in mL/min/kg but write the number alone.

**Q:** For the substance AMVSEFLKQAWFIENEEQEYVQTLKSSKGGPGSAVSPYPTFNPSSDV-NH2 [Peptide 1] , what clearance is on record?
**A:** 42.7

###

Run Description: 14-day repeat dose IV toxicity study with toxicokinetic evaluation on Day 1 and Day 14 in rats
Format: in vivo, Wistar rats
Test Settings: rat, in vivo, iv, 1 mg/kg/day, IV 1.0 mg/kg/day, male, Day 1, read-out: T1/2
Ends that are not written are not given here.
Readout Label: half-life (min)
Express the result in min but write the number alone.

**Q:** For the substance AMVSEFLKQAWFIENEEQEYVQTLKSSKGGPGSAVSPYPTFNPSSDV-NH2 [Peptide 1] , what half-life is on record?
**A:** 8.4

###

Run Description: Clinical test in humans, single 30-min i.v. infusion, plasma PK
Type: in vivo
Test Settings: human, in vivo, iv, 150 ug/kg, single 30-min i.v. infusion 150 μg/kg, GM, read-out: t1/2 (converted)
Ends that are not written are not given here.
Readout Label: half-life (min)
Express the result in min but write the number alone.

**Q:** For the substance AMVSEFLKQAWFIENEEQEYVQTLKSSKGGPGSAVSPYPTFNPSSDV-NH2 [Peptide 1] , what half-life is on record?
**A:** 67.8

###

Run Description: Clinical test in humans, single 30-min i.v. infusion, plasma PK
Type: in vivo
Test Settings: human, in vivo, iv, 100 ug/kg, single 30-min i.v. infusion 100 μg/kg, mean, read-out: AUC0-t
Ends that are not written are not given here.
Readout Label: AUC(0-t)
Please append the unit to your numeric answer.

**Q:** For the substance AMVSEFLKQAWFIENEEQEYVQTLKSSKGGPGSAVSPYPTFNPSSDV-NH2 [Peptide 1] , what AUC(0-t) is on record?
**A:** 1000 ng·h/mL

###

Run Description: 14-day repeat IV dose toxicity study with toxicokinetic evaluation on Day 1 and 14 in dogs
Assay type: in vivo, beagle dogs
Test Settings: dog, in vivo, iv, 3 mg/kg/day, IV 3.0 mg/kg/day, male, Day 14, read-out: AUC0-∞ (converted)
Ends that are not written are not given here.
Readout Label: AUC(0-inf) (ng·h/mL)
Express the result in ng·h/mL but write the number alone.

**Q:** For the substance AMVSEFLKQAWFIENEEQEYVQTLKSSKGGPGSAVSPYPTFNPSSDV-NH2 [Peptide 1] , what AUC(0-inf) is on record?
**A:** 1850

###

Run Description: Clinical test in humans, single 30-min i.v. infusion, plasma PK
Format: in vivo
Test Settings: human, in vivo, iv, 150 ug/kg, single 30-min i.v. infusion 150 μg/kg, GM, read-out: AUC0-24
Procedure: A total of 8 healthy subjects were included in each group. […] In these groups, 6 subjects received the active treatment (i.e. a single Peptide 1 30-min intravenous (i.v.) infusion corresponding to the above doses) and 2 received the placebo. In order to prevent any anticipated unblinding, the subjects under active treatment were recorded by the bioanalytical laboratory. […]
Ends that are not written are not given here.
Readout Label: AUC(0-t)
Please append the unit to your numeric answer.

**Q:** For the substance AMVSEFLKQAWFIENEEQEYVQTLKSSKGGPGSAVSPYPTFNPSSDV-NH2 [Peptide 1] , what AUC(0-t) is on record?
**A:** 1490 ng·h/mL

###

Run Description: 14-day repeat IV dose toxicity study with toxicokinetic evaluation on Day 1 and 14 in dogs
Type: in vivo, beagle dogs
Test Settings: dog, in vivo, iv, 1 mg/kg/day, IV 1.0 mg/kg/day, female, Day 14, read-out: T1/2
Ends that are not written are not given here.
Readout Label: half-life (min)
Express the result in min but write the number alone.

**Q:** For the substance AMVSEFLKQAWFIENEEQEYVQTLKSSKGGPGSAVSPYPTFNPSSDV-NH2 [Peptide 1] , what half-life is on record?
**A:** 4.66
